Source: patent US9586942B2

Target: human GlyT1c transporter (Homo sapiens (Human), UniProt P48067)
Sequence (P48067 whole entry): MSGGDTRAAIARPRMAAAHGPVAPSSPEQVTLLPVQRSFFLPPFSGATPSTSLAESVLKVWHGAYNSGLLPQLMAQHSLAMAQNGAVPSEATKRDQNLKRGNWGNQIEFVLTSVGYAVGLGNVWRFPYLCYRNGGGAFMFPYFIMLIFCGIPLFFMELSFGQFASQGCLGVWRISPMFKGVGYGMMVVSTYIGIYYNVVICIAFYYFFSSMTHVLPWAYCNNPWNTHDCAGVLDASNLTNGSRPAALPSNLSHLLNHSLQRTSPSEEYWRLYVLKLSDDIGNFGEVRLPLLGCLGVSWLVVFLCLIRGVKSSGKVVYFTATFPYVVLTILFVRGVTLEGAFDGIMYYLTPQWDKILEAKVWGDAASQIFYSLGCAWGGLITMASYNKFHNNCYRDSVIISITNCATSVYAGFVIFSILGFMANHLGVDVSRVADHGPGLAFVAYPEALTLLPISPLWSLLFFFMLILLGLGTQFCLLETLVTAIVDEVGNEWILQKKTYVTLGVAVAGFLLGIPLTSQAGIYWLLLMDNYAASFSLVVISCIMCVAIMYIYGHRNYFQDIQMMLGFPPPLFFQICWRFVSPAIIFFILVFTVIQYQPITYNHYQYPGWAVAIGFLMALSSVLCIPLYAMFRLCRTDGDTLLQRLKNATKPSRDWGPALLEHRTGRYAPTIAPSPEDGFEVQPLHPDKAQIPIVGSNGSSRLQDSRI
Assay: Radioligand binding assay using recombinant CHO cell membranes expressing human GlyT1
Settings: examples marked * tested as fumarate salts, read-out: radioligand binding Kiapp
pKi: −log10 of the molar value.
readout: pKi

Example entries and their recorded answers appear below.
Cn1cnc(S(=O)(=O)NC2CCN(c3ccc4c(c3)[C@@H](Cc3ccccc3)[C@@H](N3CCC3)CC4)CC2)c1 [Example 11] = ≥ 7.00
CCCS(=O)(=O)N[C@H]1CCN(c2ccc3c(c2)[C@@H](Cc2ccccc2)[C@@H](N2CCC2)CC3)C1=O [Example 14] = ≥ 7.00
Cn1cnc(S(=O)(=O)N[C@@H]2CCN(c3ccc4c(c3)[C@@H](Cc3ccccc3)[C@@H](N3CCC3)CC4)C2)c1 [Example 9] = ≥ 7.00
Cn1cnc(S(=O)(=O)NC2CN(c3ccc4c(c3)[C@@H](Cc3ccccc3)[C@@H](N3CCC3)CC4)C2)c1 [Example 1] = ≥ 8.00
Cn1cnc(S(=O)(=O)N[C@H]2C[C@@H](c3ccc4c(c3)[C@@H](Cc3ccccc3)[C@@H](N3CCC3)CC4)C2)c1 [Example 13] = ≥ 7.00

Form field: reported pKi of CCCS(=O)(=O)NC1CN(c2ccc3c(c2)[C@@H](Cc2ccccc2)[C@@H](N2CC4CC4C2)CC3)C1 (stereo partly shown) [Example 17]
≥ 8.00

# get_value(readout='pKi', item= CS(=O)(=O)NC1CN(c2ccc3c(c2)[C@@H](Cc2ccccc2)[C@@H](N2CCC2)CC3)C1 [Example 3] )
≥ 6.00

Record request: pKi value, item CCS(=O)(=O)NC1CN(c2ccc3c(c2)[C@@H](Cc2ccccc2)[C@@H](N2CCC2)CC3)C1 [Example 4]
≥ 7.00

Any idea what pKi was measured for Cn1cnc(S(=O)(=O)N[C@H]2CCN(c3ccc4c(c3)[C@@H](Cc3ccccc3)[C@@H](N3CCC3)CC4)C2)c1 [Example 10] ?
≥ 6.00

Given the compound CCCS(=O)(=O)NC1CN(c2ccc3c(c2)[C@@H](Cc2ccccc2)[C@@H](N2CCC2)CC3)C1 [Example 5] , what is its reported pKi?
≥ 8.00

Using the record for Cn1cnc(S(=O)(=O)N[C@H]2C[C@H](c3ccc4c(c3)[C@@H](Cc3ccccc3)[C@@H](N3CCC3)CC4)C2)c1 [Example 12] , report its pKi.
≥ 8.00

If you can, please state the reported pKi value of Cn1cc(S(=O)(=O)NC2CN(c3ccc4c(c3)[C@@H](Cc3ccccc3)[C@@H](N3CC5CC5C3)CC4)C2)nn1 (stereo partly shown) [Example 16] .
≥ 8.00

Data request, read-out pKi, for O=S(=O)(NC1CN(c2ccc3c(c2)[C@@H](Cc2ccccc2)[C@@H](N2CCC2)CC3)C1)c1ccc2c(c1)OC(F)(F)O2 [Example 6]
≥ 5.00

Recorded pKi of Cn1cnc(S(=O)(=O)NC2CN(c3ccc4c(c3)[C@@H](Cc3ccccc3)[C@@H](N3CC5CC5C3)CC4)C2)c1 (stereo partly shown) [Example 15] , please.
≥ 7.00

What value of pKi has been reported for the following compound? CCS(=O)(=O)NC1(C)CN(c2ccc3c(c2)[C@@H](Cc2ccccc2)[C@@H](N2CCC2)CC3)C1 [Example 8]
≥ 5.00

Which value of pKi has been reported for Cn1cnc(S(=O)(=O)NC2(C)CN(c3ccc4c(c3)[C@@H](Cc3ccccc3)[C@@H](N3CCC3)CC4)C2)c1 [Example 7] in the records?
≥ 7.00
